Overview of recorded Percent Effect for various compounds
Molecular target: Tryptophan--tRNA ligase (Mycobacterium tuberculosis (strain ATCC 25618 / H37Rv)) (UniProt P9WFT3)
Sequence (P9WFT3 whole entry): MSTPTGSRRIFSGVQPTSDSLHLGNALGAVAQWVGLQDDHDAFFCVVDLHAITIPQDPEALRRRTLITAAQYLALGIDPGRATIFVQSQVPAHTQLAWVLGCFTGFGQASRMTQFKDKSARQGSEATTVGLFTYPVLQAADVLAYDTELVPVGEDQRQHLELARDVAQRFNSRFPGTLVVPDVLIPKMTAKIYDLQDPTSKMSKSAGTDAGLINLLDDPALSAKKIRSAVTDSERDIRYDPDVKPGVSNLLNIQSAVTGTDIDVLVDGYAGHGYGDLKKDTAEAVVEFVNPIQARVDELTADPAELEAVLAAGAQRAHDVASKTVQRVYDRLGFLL
Assay: Biochemical assay for Mt-TrpRS
Type: functional
Set-up: scale not given: direction of the effect not stated beside the values
Conditions: 10 µM
Among all 65,000 compounds or so, about 65 (0.1%) showed an effect of 50% or more. The sample holds strong results, similar compounds and a random draw of the others, so the mix is not that of the screen.
Write down the numeric answer in % and omit the unit.

These solved cases illustrate the format of a correct answer.
{"columns": ["Smiles Entry", "Uom", "Percent Effect"],
 "data": [
  ["Cn1ncc2c(N3CCCN4CCC[C@H]4C3)nc(C(C)(C)C)nc21", "%", 2.18],
  ["NC[C@H]1CC[C@H](c2c(C(N)=O)sc3ccccc32)CC1", "%", -6.86]
]}

Shift focus to the following entry.
# compound `CNC(=O)[C@@H]1COC[C@H]2CN(C(=O)c3cccc(OC)c3)C[C@H]21` ; its Percent Effect = 1.06

====

Target: Tryptophan--tRNA ligase (Mycobacterium tuberculosis (strain ATCC 25618 / H37Rv))
Experiment: Biochemical assay for Mt-TrpRS
Assay type: functional
Set-up: scale not given: direction of the effect not stated beside the values
Settings: 10 µM
The whole screen tested about 65,000 compounds, of which about 65 (0.1%) showed an effect of 50% or more. For the sample, strong results were picked, then their nearest neighbours and some compounds at random.
Reported Metric: Percent Effect (%)
Write down the numeric answer in % and omit the unit.

These solved cases illustrate the format of a correct answer.
{"columns": ["Compound", "Uom", "Reported Result"],
 "data": [
  ["Cc1noc(C)c1CN(Cc1cccs1)C1CCS(=O)(=O)C1 (stereo not drawn)", "%", 59.4],
  ["Cn1cc(CCN2CCOC(CNc3cccnn3)C2)cn1 (stereo not drawn)", "%", 66]
]}

Shift focus to the following entry.
# compound CC(C)(C)c1nc(CN(Cc2cccs2)C2CCS(=O)(=O)C2)no1 (stereo not drawn) ; its Percent Effect = -0.877

====

Biological target: Tryptophan--tRNA ligase (Mycobacterium tuberculosis (strain ATCC 25618 / H37Rv))
Assay: Biochemical assay for Mt-TrpRS
Format: functional
Set-up: scale not given: direction of the effect not stated beside the values
Settings: 10 µM
About 65 (0.1%) of roughly 65,000 compounds showed an effect of 50% or more. For the sample, strong results were picked, then their nearest neighbours and some compounds at random.
Overview of recorded Percent Effect for various compounds
Please state the number and follow it with the unit.

{"columns": ["Compound", "Reported Metric", "Reported Result"],
 "data": [
  ["COc1ccc(CN2C[C@H]3CN(c4cncnc4)C(=O)[C@H]3C2)cc1", "Percent Effect", "0.241%"],
  ["CC(C)c1nn(C)c(N2CCOCC2)c1CNCC(=O)N(C)C", "Percent Effect", "4.97%"],
  ["CCS(=O)(=O)NCCCNCc1c(C)nn(C)c1N(C)C", "Percent Effect", "51.9%"],
  ["Cc1nn(C)c(N(C)C)c1CNCCCNS(C)(=O)=O", "Percent Effect", "24.1%"],
  ["O=C(c1ccccc1)N1CC[C@H]2C[C@H](c3nccs3)O[C@@H]2C1", "Percent Effect", "0.277%"]
]}

# compound `Cc1nn(C)c(N(C)C)c1CNCCNS(C)(=O)=O` ; its Percent Effect = -3.19%

# compound Cc1c(Cl)c(C(=O)NC(C)CN2CCOCC2)nn1C (centres undefined) ; its Percent Effect = -1.4%

# compound `Cc1ccccc1CNC(=O)N1C[C@H]2C[C@H](C(=O)N3CCCC3)[C@@H](C1)O2` ; its Percent Effect = -2.16%

# compound CC(NCc1c(C(C)C)nn(C)c1N1CCOCC1)C(=O)N(C)C (centres undefined) ; its Percent Effect = 71.4%
